B1: Azoarcus group I ribozyme (parent)
chain: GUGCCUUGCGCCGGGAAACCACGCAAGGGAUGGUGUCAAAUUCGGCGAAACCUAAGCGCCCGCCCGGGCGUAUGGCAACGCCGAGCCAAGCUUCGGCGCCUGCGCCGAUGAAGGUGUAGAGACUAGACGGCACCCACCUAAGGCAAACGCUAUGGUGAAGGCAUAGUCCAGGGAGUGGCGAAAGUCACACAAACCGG

Variants of: B1
EXPERIMENTAL_PROTOCOL: reverse-splicing fitness (ratio to wild type); higher = more active; in vitro selection; Mg2+ level not given
PROPERTY_LABEL: reverse-splicing fitness

C82U A111U C169U U176A: 0.0149
A111U A120C A145C C169G: 0.00891
C82A A111U A120C A145G C150G C169U U176A: 0.0146
C82U A120U A145G C150U C169A U176A: 0.00476
C82U A111C A120U A145U U176C: 0.0113
A111U A120U A145U C150A C169A U176A: 0.00284
C82G A120G A145G C169U: 0.0249
C82A A111G A120G A145C C150A C169A U176A: 0.0118
C82G A111U A120G A145C C169G U176A: 0.0245
C82G A111C A120G A145C C169U U176G: 0.00406
C82A A120G A145U C150A C169U U176A: 0.0207
